Target: Adenosine receptor A2a (Homo sapiens, UniProt P29274)
Sequence (P29274 whole entry): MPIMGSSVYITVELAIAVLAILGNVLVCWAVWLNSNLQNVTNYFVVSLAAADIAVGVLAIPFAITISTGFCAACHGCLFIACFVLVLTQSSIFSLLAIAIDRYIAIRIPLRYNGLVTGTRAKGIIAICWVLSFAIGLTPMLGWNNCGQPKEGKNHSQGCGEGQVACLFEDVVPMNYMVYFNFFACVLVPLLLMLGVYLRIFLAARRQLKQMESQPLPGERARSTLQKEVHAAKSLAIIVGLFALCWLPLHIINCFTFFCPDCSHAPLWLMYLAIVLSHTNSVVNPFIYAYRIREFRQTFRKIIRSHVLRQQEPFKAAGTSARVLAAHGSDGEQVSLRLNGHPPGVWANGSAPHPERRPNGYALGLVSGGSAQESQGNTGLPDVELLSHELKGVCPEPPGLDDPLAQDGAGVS
Test: Displacement of [3H]ZM-241385 from recombinant human adenosine A2A receptor expressed in HeLa cells at 0.1 uM
VALUE KIND: inhibition (%)

Solved entries (count: 3):
STRUCTURE AS SMILES | READOUT UNITS | inhibition
CCCn1c(=O)c2[nH]c(-c3ccc(OCC(=O)Nc4ccc(Cl)cc4)cc3)cc2n(CCC)c1=O | % | 61
COCCCn1c(=O)n(C)c(=O)c2[nH]c(-c3ccc(OCC(=O)Nc4ccccc4)cc3)cc21 | % | 29
O=C(COc1ccc(-c2cc3c([nH]2)c(=O)n(CC2CC2)c(=O)n3CC2CC2)cc1)Nc1ccccc1 | % | 93

[A] CCCn1c(=O)c2[nH]c(-c3ccc(OCC(=O)Nc4ccccc4)cc3)c(Cl)c2n(CCC)c1=O
[B] CCCn1c(=O)n(C)c(=O)c2[nH]c(-c3ccc(OCC(=O)NCc4ccccc4)cc3)cc21
Please choose the item with the lower inhibition value from this pair: A and B # answer = label of selected item
B

[A] COCCCn1c(=O)c2[nH]c(-c3ccc(OCC(=O)Nc4ccccc4)cc3)cc2n(CCCOC)c1=O
[B] CCCn1c(=O)c2[nH]c(-c3ccc(OCC(=O)Nc4ccc(C(=O)NCCc5ccc(OC)cc5)cc4)cc3)cc2n(CCC)c1=O
Which of the two items, A and B , has the greater recorded inhibition? # answer = label of selected item
A

Value source: ChEMBL document CHEMBL1148617
